// soluble fraction (log2) lookup, one value per entry
Method notes: soluble fraction after stress (log2 fold change); higher = more stays soluble; pooled small domains, quantitative proteomics
Setup conditions: stress: 50 degC
Answer with the value's number alone.

Some entries whose results are on file:
Sequence	Endpoint result
HMSSVEVWINGKSSGLTSDNRAQILQQLPAESIERIEVIDNPSAKFSAEGSAGIINIVLKKD	0.157
HMLKFPIGTHVGKKKPSANLSLPNKHGVVIGHGERRNAKGAIMRFYIVETTHSSRPEEWAPGITYPL	-2.5
HMKEADVRKNEILDAAGILFSEKGYDNTSVTDIMNAVGFAKGTLYHHFKSKEDIMDALIKRQTD	0.219
HMTIGIGKSLDFNTSGEKAYRIYNFKGAYVGTFKASDMTSLKNEVQKSNVKAGAYMVRSLDGHVNRLIEIK	-0.681
HMSATEPVHFDPNKSPEDMTVEELQAGILAKMANNGPVSDQMKKTVNENIWHDSLVNWLKSF	0.0373

Value of soluble fraction (log2) reported for the sequence HMDLGEQIIEKLRAAGGFLAITDKSPAEEIYELFATSKKNYKKAVGGLYKKGLLVIEDDGIRLTPAGR is -0.102

Value of soluble fraction (log2) reported for the sequence HMTTLAADFNSDGRVDIGDLSILAGNWGKSRTNEVDFNKYGDADYNGRIDIIDLSILATQFGQTDNSN is -0.0889

###

Method notes: soluble fraction after stress (log2 fold change); higher = more stays soluble; pooled small domains, quantitative proteomics
Setup conditions: stress: 50 degC
# label = 1 (yes) if soluble fraction (log2) >= -0.1 else 0 (no)

Below, 5 sequences whose answers are already recorded.
Sequence	Assigned class
HMRTANREKRIEASVKMMKAGYPVGYIIARVFMYEGWEEDYRQLLIYLSEKIPKDVSNPITFEVIS	0 (no)
HMAPDAPDGFVHRWIRAEMLGQEDKSNVHRRMQEGYELVRADEYPDSDLPVAEGRYAGIIGVGGLLLARF	0 (no)
HMSLMLYVEDVDTAFKKAIELGATEIRPVHDQFYGDRAGTLQDPFGHIWIIGTHKEDVSDEELNNRIGNI	1 (yes)
HMQTAAANPSPESILQAREAAGLSQSEAGALIYSGLRSWQHWEWGTRRMHPGLFELFLKKTGQI	0 (no)
HMIKSIRELAEVITLWKNQGKTILIAEHRLSYLMDLADRVLYMKDGQIENDFSMADFRKIPPDEISRMGLR	0 (no)

Input: soluble fraction (log2) >= -0.1 for HMKRNLESVLDHIEGIGPKRRKALYKHFGNLDAMRVAELEELESVEGMNKKAALAVYEFFRRNS ?
Output: 1 (yes)

Input: soluble fraction (log2) >= -0.1 for HMIDELNVGDIRFYLNRYGKEIQIEIIRIGDDGSVYARTMADNALFRVPEARLKNIGEKVPAEEVQRG ?
Output: 0 (no)

Input: soluble fraction (log2) >= -0.1 for HMNANTILNSQRILTQLGFNPGPIDGAFGAKTKGALNAFYTSIGKSYDGLLDSNELVELQKALDVSGLKN ?
Output: 0 (no)

Input: soluble fraction (log2) >= -0.1 for HMTPNATWQDDAQNLLRDLIQHQPVLVQISAAKRLRDQAEQISRITGGETVTREHVEAAGHALGMGVT ?
Output: 1 (yes)

Input: soluble fraction (log2) >= -0.1 for HMKTLELIAAIRKRIAGGYAGADGRLPNIGEIAKDFSVSPMTAQKAVRALVEAGVLTSTRRKGVFLKQPAS ?
Output: 0 (no)

###

Method notes: soluble fraction after stress (log2 fold change); higher = more stays soluble; pooled small domains, quantitative proteomics
Setup conditions: stress: 50 degC
// soluble fraction (log2) lookup, one value per entry

Some entries whose results are on file:
Sequence	Test readout	Endpoint result
HMKSGLLNLSTRKQEKIKQALLSEFSNVSLLEAKVANIVTLAEISRGSFYTYFEDIYDAYQWLASI	soluble fraction (log2)	-0.26
HMTISPYTKDDFLKGTKPFEDVYAHKADPFVHDRALEQMTIWAKSVGVNGFKKLYKAYIDSLRIKNKEI	soluble fraction (log2)	0.0524
HMDRPARDEAQSWLADVLADGPVPTAEIREEAEAAGLAWRTIQRARIALSVEPIRGDGRNAWLWQLPG	soluble fraction (log2)	-1.42
HMYSVVGKKGIVIEDINYSTGTGQIKSEGEVWSAKTNEQINIPKGTEIEIESIDGVKVIVKPL	soluble fraction (log2)	0.0184
HMLLTASNYFKETKGINFSELPEALQKGHSFVIKSTENGTNWNAYSTSQNIQRVIDAYFSKLDEYLEKNQ	soluble fraction (log2)	-0.611
HMSVAVKAPLQGTVMKVNVKPGDTVTKGAPVAVIEALKMENDVPAPQDGVVASVDVKSGDSVKTDQVLLTL	soluble fraction (log2)	0.182
HMGIPIEAYHESLHRHYIDLWELLDTGKETLIDAEGNEVDKIHLLNAIRFNVNGMLHELLKE	soluble fraction (log2)	-1.76
HMTTKEEAAYQAIRSAIIDGELKPGQSVTIRDLASRFDLGRTPITDAMKHLALDGWLETTTGVGTRV	soluble fraction (log2)	-0.106

Value of soluble fraction (log2) reported for the sequence HMKTMAVYPVGTRVLTSDGEIGVVEKQNSEAPERPVIKILKGADGHDYEKPDFKDLMKILTLFIVDTI is 0.298

###

// soluble fraction (log2) lookup, one value per entry
Method notes: soluble fraction after stress (log2 fold change); higher = more stays soluble; pooled small domains, quantitative proteomics
Setup conditions: stress: 50 degC
Answer with the value's number alone.

Some entries whose results are on file:
Sequence	soluble fraction (log2)
HMVTIYQRIMLVLEDKQVSVNALSKLVDMSQTTLNTQLKGERTLSANVVAKVLVAYPDVSAEWLMRGVGTM	0.362
HMDMAYEVVKAFHDLQDYKDVKGGKVYHHYDVGDTYPRQGLDPAPDETRIEELLSSGNAQGVPLIAEV	0.0503
HMIVDINDVRIDKYIADNTDYSRNLILNLIKNGDILVNDSKIKPSYKVKQGDKITINNVKTD	0.227
HMKSAIGEEKAENFAFADLGMDPLSAEGVRTEFGFEQGQFVYKVYFTADGTEYEYWIKASDGSVVKKGMDL	-0.891
HMFVGVDMAVKEEIGKEGVAFTDLRPAGKVSIGDDVYDAVSETGAFITRGTSVRVLKYQAGQVYVVK	-0.154
HMALGRTGEVYLPIPAGRAGHGKISITLQGALREVDAVTAGEALPRGTSVRVVDVAGNGVLLVEK	-0.059
HMFKDVTVPSVINKTEAEATNMLKGLNLVVSVEYEENANKSDGIVTAQNVNANKVIKEGETVTITVNKQP	0.00765
HMKKNTEALDYYKKAGANFPEDEVISSEYLFRAAQLQEVLGKTDEAVAIYKDIKAKYPTTEIGLNVDKFIL	-0.0868
HMETVQTGTVKVSNSLNVRSGAGTNYSVLGSLSNGAKVEIVGTSGSWYKIKYGSGYGYVSKDYVTVS	-0.0163
HMSPTEQEKIGLFIKKLREEKNLTQEAFASLLKTSQSAVARIESGNQNITIEQLMKIGEVLNHNIVSI	0.0103

Value of soluble fraction (log2) reported for the sequence HMAEAPGSVELLAERLRPWWEIHGGEWGSKTKALRFLFGDQAPVAGSYWRALEAAIAQIESTT is -0.16

Value of soluble fraction (log2) reported for the sequence HMQKITPDNWTYIRSLIRQKWSPDQIDQWLKKHPDVGFTVSRETIYQYVKEDRQKDGDLYLSLRRAGKSY is -1.71

Value of soluble fraction (log2) reported for the sequence HMFMSKTAMVAIISEADKYGLFNIPEGLSVEKTADEIFEGHIEVDFDKLKNELDFVYKNEALEKQFQEN is -0.534

###

Method notes: soluble fraction after stress (log2 fold change); higher = more stays soluble; pooled small domains, quantitative proteomics
Setup conditions: stress: 50 degC
# label = 1 if soluble fraction (log2) >= -0.07 else 0

Sequence	Assigned class
HMNSNKFANAAAVAVAEKPADSYNPLFIYGPSGVGKTHLLYAIANEIHKHHPDYNIVYIKGDQFTNELIN	1
HMKEVDERPWGKYEVLLDAPDVKVKRITVNPGQRLSYQYHEKRAEVWTVVSGILTIILEDDKLFRG	1
HMGPAVGAIRVEGNKRVEPETVRTYLTFNVGDPYDLAKVDESLKALFATGLFQDVRIRREGNTVVIVVVEN	0
HMDNEIMYPIQINGKVRAELFVSTERAMDKQYVLEQAKANEKIQGYLEGNRLVKEIFVPKRIVNLVIAP	1
HMHFDQILAHAMDERGMNAVQLASLTGLSSGAISRYLAGDRQPTVYSIQQIAKALGVSADYLVG	0
HMIGKLTSSKLAAIHKMKTNELLAHFTEKGFLNINDAGKYILTQQGKDVGAEFKTSQYGGYFLWPENIE	0
HMPADHYEVLGIARDADAAEVKRAYRRLARESHPDANHGDSGAEVRFKAVSAAYEVLSDPERRARYDRFGH	1
HMGAGLDDLVRKSLHNAGLKADDNVVSWISGNLGSDRMVSRMELEKLVLFVAGQSEITLEDAQAVIGD	0

Moving on to another sequence below.
Input: soluble fraction (log2) >= -0.07 for HMDEMEFQKYVDQNLKQKGISLTAEAKAELLLRLGGDTMLLHSAIEKLDLYGEKNLNLNDIKHLVSLNSDV ?
Output: 1

Sourced from the domain aggregation screens of Martell et al. (2025)
